Each recorded value in this set is attributed to PubChem BioAssay (NCI).

System: HCC-2998 colon
run description: NCI tumour cell line growth inhibition, 48 h
Provide the reported TGI of each item.

*Q* Complete the entry with TGI for O=C1/C(=C/c2cc(O)c(O)c(O)c2)Oc2cc(O)cc(OC3OC(CO)C(O)C(O)C3O)c21 (stereo unspecified)
*A* > 100 µM

*Q* Give a short answer stating reported TGI for Cn1c2ccccc2n2c(=O)c(-c3ccc(Cl)cc3)nnc12 .
*A* > 100 µM

*Q* Output measured TGI for this item: COc1cc(O)c2c(=O)c3cccc(C)c3[nH]c2c1
*A* > 10 µM

*Q* State its TGI: CC(NC(=O)c1ccc(Cl)c(Cl)c1)c1ccc(-c2ccccc2)cc1 (stereo unspecified)
*A* > 100 µM

*Q* Answer with reported TGI of Cc1cccc(-c2cc(=O)c3cccnc3[nH]2)c1
*A* 13.2 µM

*Q* Give the measured TGI for O=C(Nc1ccccc1/C=C/c1n[nH]c2ccccc12)c1ccccc1
*A* 4.23 µM
